Target: rat AT1aR (Rattus norvegicus, UniProt P25095)
Sequence (P25095 whole entry): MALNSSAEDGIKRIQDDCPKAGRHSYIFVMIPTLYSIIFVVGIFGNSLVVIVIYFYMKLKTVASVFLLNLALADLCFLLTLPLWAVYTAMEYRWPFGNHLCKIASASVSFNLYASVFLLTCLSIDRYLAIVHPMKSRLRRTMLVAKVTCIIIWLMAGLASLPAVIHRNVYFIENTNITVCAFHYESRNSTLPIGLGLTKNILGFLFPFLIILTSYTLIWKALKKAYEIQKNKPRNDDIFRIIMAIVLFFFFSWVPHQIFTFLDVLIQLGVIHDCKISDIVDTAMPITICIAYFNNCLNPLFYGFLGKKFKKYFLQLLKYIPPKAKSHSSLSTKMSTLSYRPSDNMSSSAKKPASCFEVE
Experiment: beta-arrestin2 recruitment assay (PathHunter), rat AT1aR
Format: cell-based
Conditions: read-out: EC50
Where a SMILES comes first, the peptide text is derived from it. [ ]: non-standard residue; d: D form. Ac6c = NC1(C(=O)O)CCCCC1; Ac5c = NC1(C(=O)O)CCCC1; Sar = CNCC(=O)O
endpoint: EC50

As a guide, the following entries are already answered.
CNCC(=O)N[C@@H](CCCNC(=N)N)C(=O)N[C@H](C(=O)N[C@@H](Cc1ccc(O)cc1)C(=O)NC1(C(=O)N[C@@H](Cc2c[nH]cn2)C(=O)N2CCC[C@H]2C(=O)N[C@H](C(=O)O)[C@@H](C)O)CCCCC1)C(C)C [SEQ ID NO: 14, Sar-Arg-Val-Tyr-cyHex-His-Pro-Thr] (H-[Sar]RVY[Ac6c]HPT-OH)	> 3.2 nM
CNCC(=O)N[C@@H](CCCNC(=N)N)C(=O)N[C@H](C(=O)N[C@@H](Cc1ccc(O)cc1)C(=O)NC1(C(=O)N[C@@H](Cc2c[nH]cn2)C(=O)N2CCC[C@H]2C(=O)N[C@@H](CO)C(=O)O)CCCC1)C(C)C [SEQ ID NO: 22, Sar-Arg-Val-Tyr-cyPen-His-Pro-Ser] (H-[Sar]RVY[Ac5c]HPS-OH)	> 3.2 nM

EC50 for CNCC(=O)N[C@@H](CCCNC(=N)N)C(=O)N[C@H](C(=O)N[C@@H](Cc1ccc(O)cc1)C(=O)NC1(C(=O)N[C@@H](Cc2c[nH]cn2)C(=O)N2CCC[C@H]2C(=O)NC)CCCCC1)C(C)C [SEQ ID NO: 49, Sar-Arg-Val-Tyr-cyHex-His-Pro-NH-methyl] (H-[Sar]RVY[Ac6c]HP-NHMe) is > 3.2 nM

###

Molecular target: human AT1R (Homo sapiens)
Test: IP1 accumulation assay (IP1 G-protein assay), human AT1R
Type: cell-based
Settings: read-out: EC50
Where a SMILES comes first, the peptide text is derived from it. [ ]: non-standard residue; d: D form. Ac6c = NC1(C(=O)O)CCCCC1; Ac5c = NC1(C(=O)O)CCCC1; Sar = CNCC(=O)O
Measured EC50 values are reported for all entries that follow.

CNCC(=O)N[C@@H](CCCNC(=N)N)C(=O)N[C@H](C(=O)N[C@@H](Cc1ccc(O)cc1)C(=O)NC1(C(=O)N[C@@H](Cc2c[nH]cn2)C(=O)N2CCC[C@H]2C(=O)N[C@@H](CO)C(=O)O)CCCCC1)C(C)C [SEQ ID NO: 15, Sar-Arg-Val-Tyr-cyHex-His-Pro-Ser] (H-[Sar]RVY[Ac6c]HPS-OH)	> 1.3 nM
CNCC(=O)N[C@@H](CCCNC(=N)N)C(=O)N[C@H](C(=O)N[C@@H](Cc1ccc(O)cc1)C(=O)NC1(C(=O)N[C@@H](Cc2c[nH]cn2)C(=O)N2CCC[C@H]2C(=O)N[C@@H](CC(C)C)C(=O)O)CCCC1)C(C)C [SEQ ID NO: 19, Sar-Arg-Val-Tyr-cyPen-His-Pro-Leu] (H-[Sar]RVY[Ac5c]HPL-OH)	> 1.3 nM
CNCC(=O)N[C@@H](CCCNC(=N)N)C(=O)N[C@H](C(=O)N[C@@H](Cc1ccc(O)cc1)C(=O)N1CCC[C@H]1C(=O)N[C@@H](Cc1c[nH]cn1)C(=O)N1CCC[C@H]1C(=O)N[C@H](C(=O)O)[C@@H](C)O)C(C)C [SEQ ID NO: 7, Sar-Arg-Val-Tyr-Pro-His-Pro-Thr] (H-[Sar]RVYPHPT-OH)	> 10000 nM

EC50 for CNCC(=O)N[C@@H](CCCNC(=N)N)C(=O)N[C@H](C(=O)N[C@@H](Cc1ccc(O)cc1)C(=O)NC1(C(=O)N[C@@H](Cc2c[nH]cn2)C(=O)N2CCC[C@H]2C(=O)N[C@@H](CCSC)C(=O)O)CCCC1)C(C)C [SEQ ID NO: 23, Sar-Arg-Val-Tyr-cyPen-His-Pro-Met] (H-[Sar]RVY[Ac5c]HPM-OH) is > 1.3 nM

EC50 for CNCC(=O)N[C@@H](CCCNC(=N)N)C(=O)N[C@H](C(=O)N[C@@H](Cc1ccc(O)cc1)C(=O)NC1(C(=O)N[C@@H](Cc2c[nH]cn2)C(=O)N2CCC[C@H]2C(=O)N[C@@H](CO)C(=O)O)CCCC1)C(C)C [SEQ ID NO: 22, Sar-Arg-Val-Tyr-cyPen-His-Pro-Ser] (H-[Sar]RVY[Ac5c]HPS-OH) is > 1.3 nM

EC50 for CNCC(=O)N[C@@H](CCCNC(=N)N)C(=O)N[C@H](C(=O)N[C@@H](Cc1ccc(O)cc1)C(=O)NC1(C(=O)N[C@@H](Cc2c[nH]cn2)C(=O)N2CCC[C@H]2C(=O)N[C@@H](C)C(=O)O)CCCCC1)C(C)C is 10000 nM

###

Target: human AT1R (Homo sapiens, UniProt P30556)
Sequence (P30556 1-359): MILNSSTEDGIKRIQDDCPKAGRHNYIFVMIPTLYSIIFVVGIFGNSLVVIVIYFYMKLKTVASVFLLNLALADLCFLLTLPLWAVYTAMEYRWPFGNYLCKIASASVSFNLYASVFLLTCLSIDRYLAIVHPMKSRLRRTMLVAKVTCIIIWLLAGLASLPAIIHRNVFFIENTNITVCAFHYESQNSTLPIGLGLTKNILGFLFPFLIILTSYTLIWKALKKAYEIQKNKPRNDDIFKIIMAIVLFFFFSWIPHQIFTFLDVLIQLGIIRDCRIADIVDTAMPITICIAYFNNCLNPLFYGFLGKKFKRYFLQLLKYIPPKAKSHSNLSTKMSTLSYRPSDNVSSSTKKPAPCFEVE
Assay: beta-arrestin2 recruitment assay (PathHunter), human AT1R
Type: cell-based
Conditions: read-out: pEC50 (converted)
Where a SMILES comes first, the peptide text is derived from it. [ ]: non-standard residue; d: D form. Ac6c = NC1(C(=O)O)CCCCC1; Sar = CNCC(=O)O
endpoint: EC50

EC50 for CNCC(=O)N[C@@H](CCCNC(=N)N)C(=O)N[C@H](C(=O)N[C@@H](Cc1ccc(O)cc1)C(=O)N1CCC[C@H]1C(=O)N[C@@H](Cc1c[nH]cn1)C(=O)N1CCC[C@H]1C(=O)N[C@H](C)C(=O)O)C(C)C [SEQ ID NO: 60, Sar-Arg-Val-Tyr-Pro-His-Pro-D-Ala] (H-[Sar]RVYPHP[dA]-OH) is > 3.16 nM

EC50 for CCNC(=O)[C@@H]1CCCN1C(=O)[C@H](Cc1c[nH]cn1)NC(=O)C1(NC(=O)[C@H](Cc2ccc(O)cc2)NC(=O)[C@@H](NC(=O)[C@H](CCCNC(=N)N)NC(=O)CNC)C(C)C)CCCCC1 [SEQ ID NO: 48, Sar-Arg-Val-Tyr-cyHex-His-Pro-NH-ethyl] (H-[Sar]RVY[Ac6c]HP-NHEt) is > 3.16 nM

###

Measured Emax values are reported for all entries that follow.
Target: human AT1R (Homo sapiens)
Assay: beta-arrestin2 recruitment assay (PathHunter), human AT1R
Assay type: cell-based
Settings: 1 h, read-out: Span (relative to hAngII)
Where a SMILES comes first, the peptide text is derived from it. [ ]: non-standard residue; d: D form. Ac5c = NC1(C(=O)O)CCCC1; Sar = CNCC(=O)O

As a guide, the following entries are already answered.
CNCC(=O)N[C@@H](CCCNC(=N)N)C(=O)N[C@H](C(=O)N[C@@H](Cc1ccc(O)cc1)C(=O)NC1(C(=O)N[C@@H](Cc2c[nH]cn2)C(=O)N2CCC[C@H]2C(=O)N[C@H](C)C(=O)O)CCCCC1)C(C)C [SEQ ID NO: 57, Sar-Arg-Val-Tyr-cyHex-His-Pro-D-Ala]	< 101%
CNCC(=O)N[C@@H](CCCNC(=N)N)C(=O)N[C@H](C(=O)N[C@@H](Cc1ccc(O)cc1)C(=O)NC1(C(=O)N[C@@H](Cc2c[nH]cn2)C(=O)N2CCC[C@H]2C(=O)N[C@H](C(=O)O)[C@@H](C)O)CCCC1)C(C)C [SEQ ID NO: 21, Sar-Arg-Val-Tyr-cyPen-His-Pro-Thr] (H-[Sar]RVY[Ac5c]HPT-OH)	< 101%
CNCC(=O)N[C@@H](CCCNC(=N)N)C(=O)N[C@H](C(=O)N[C@@H](Cc1ccc(O)cc1)C(=O)NC1(C(=O)N[C@@H](Cc2c[nH]cn2)C(=O)N2CCC[C@H]2C(=O)N[C@@H](CO)C(=O)O)CCCC1)C(C)C [SEQ ID NO: 22, Sar-Arg-Val-Tyr-cyPen-His-Pro-Ser] (H-[Sar]RVY[Ac5c]HPS-OH)	< 101%

Please examine the following record next.
Entry CC[C@H](C)[C@@H](C(=O)N[C@@H](Cc1c[nH]cn1)C(=O)N1CCC[C@H]1C(=O)N[C@@H](C)C(=O)O)N(C)C(=O)[C@H](Cc1ccc(O)cc1)NC(=O)[C@@H](NC(=O)[C@H](CCCNC(=N)N)NC(=O)CNC)C(C)C [SEQ ID NO: 58, Sar-Arg-Val-Tyr-NMeIle-His-Pro-Ala] under human AT1R (Homo sapiens) had Emax of < 101%
